biological target: Macrophage colony-stimulating factor 1 receptor (Homo sapiens); assay: In Vitro CSF-1R Kinase Activity: The CSF-1R construct corresponds to recombinant human catalytic domain (aa 538-910), which was purchased from Invitrogen (cat #PV4092). CSF-1R was mixed with peptide substrate (biotin-TYR1, Sequence: Biotin-(Ahx)-GAEEEIYAAFFA-COOH, 4 μM final) at varying inhibitor concentrations in reaction buffer: 50 mM MOPSO pH 6.5, 10 mM MgCl2, 2 mM MnCl2, 2.5 mM DTI, 0.01% BSA, 0.1 mM Na3VO4 and 0.1 mM ATP. After about 60 min incubation at rt, the reaction was quenched by addition of EDTA (final concentration: 100 mM) and developed by addition of detection reagents (final approximate concentrations: 30 mM HEPES pH 7.0, 0.06% BSA, 0.006% Tween-20, 0.24 M KF, 80 ng/mL PT66K (europium labeled anti-phosphotyrosine antibody cat #61T66KLB Cisbio, Bedford, Mass.) and 0.6 μg/mL SAXL (Phycolink streptavidin-allophycocyanin acceptor, cat #PJ25S, Prozyme, San Leandro, Calif.). The developed reaction was incubated in the dark for about 60 min at rt, then read via a time-resolved fluorescence detector (Rubystar, BMG) using a 337 nm laser for excitation and monitoring emission wavelength at 665 nm. Within the linear range of the assay, the observed signal at 665 nm was directly related to phosphorylated product and can be used to calculate the IC50 values.
Sequence (P07333 whole entry, the tested form may be a part): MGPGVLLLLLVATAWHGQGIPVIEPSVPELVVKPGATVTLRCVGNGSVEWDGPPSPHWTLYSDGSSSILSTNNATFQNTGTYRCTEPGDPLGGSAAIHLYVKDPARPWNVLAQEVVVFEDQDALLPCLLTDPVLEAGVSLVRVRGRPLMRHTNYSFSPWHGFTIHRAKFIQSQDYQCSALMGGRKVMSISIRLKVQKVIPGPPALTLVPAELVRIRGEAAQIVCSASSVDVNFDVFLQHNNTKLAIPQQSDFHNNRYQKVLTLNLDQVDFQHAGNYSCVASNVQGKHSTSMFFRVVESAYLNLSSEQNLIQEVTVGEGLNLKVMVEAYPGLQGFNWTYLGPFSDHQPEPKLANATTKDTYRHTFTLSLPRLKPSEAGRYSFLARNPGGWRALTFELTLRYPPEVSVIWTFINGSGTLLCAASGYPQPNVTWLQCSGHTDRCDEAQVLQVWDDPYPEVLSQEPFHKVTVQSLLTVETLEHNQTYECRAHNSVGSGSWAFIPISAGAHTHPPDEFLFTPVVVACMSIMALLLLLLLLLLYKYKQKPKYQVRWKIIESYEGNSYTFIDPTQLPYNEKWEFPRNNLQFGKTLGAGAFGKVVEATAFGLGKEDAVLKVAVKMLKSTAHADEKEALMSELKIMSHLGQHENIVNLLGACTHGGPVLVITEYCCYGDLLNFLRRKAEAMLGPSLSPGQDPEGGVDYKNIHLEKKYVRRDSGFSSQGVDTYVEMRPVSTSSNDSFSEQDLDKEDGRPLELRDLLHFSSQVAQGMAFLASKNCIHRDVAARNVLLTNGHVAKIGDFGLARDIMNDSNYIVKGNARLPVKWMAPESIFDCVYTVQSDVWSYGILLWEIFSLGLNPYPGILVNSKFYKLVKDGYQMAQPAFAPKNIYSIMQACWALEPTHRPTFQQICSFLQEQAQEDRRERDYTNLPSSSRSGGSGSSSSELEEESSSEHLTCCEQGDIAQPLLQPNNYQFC
A collection of compounds and their measured IC50
EXPERIMENTAL ENDPOINT: IC50

> print(dat)
                              sample.smiles                            assayed.target  observed
1  CC1(C)CC(n2cc(Nc3nc(C4CCCCC4)cn4ncnc34)cn2)CC(C)(C)O1  Macrophage colony-stimulating factor 1 receptor (Homo sapiens)  < 100 nM
2  O[C@H]1CC[C@@H](n2cc(Nc3nc(C4CCCCC4)cn4ncnc34)cn2)CC1  Macrophage colony-stimulating factor 1 receptor (Homo sapiens)  < 100 nM
3  O[C@H]1CC[C@H](n2cc(Nc3nc(C4CCCCC4)cn4ncnc34)cn2)CC1  Macrophage colony-stimulating factor 1 receptor (Homo sapiens)  < 100 nM
